# measurementTarget: unphosphorylated VEGF-R2Δ50 (Homo sapiens, UniProt P35968, DEL940-989/E990V)
# Construct: VEGF-R2Δ50 contains residues 806–939 and 990–1171; made in house; host or cells: baculovirus/insect cell system
# Sequence (P35968 with tags, fused parts or gaps DEL940-989/E990V limits assumed): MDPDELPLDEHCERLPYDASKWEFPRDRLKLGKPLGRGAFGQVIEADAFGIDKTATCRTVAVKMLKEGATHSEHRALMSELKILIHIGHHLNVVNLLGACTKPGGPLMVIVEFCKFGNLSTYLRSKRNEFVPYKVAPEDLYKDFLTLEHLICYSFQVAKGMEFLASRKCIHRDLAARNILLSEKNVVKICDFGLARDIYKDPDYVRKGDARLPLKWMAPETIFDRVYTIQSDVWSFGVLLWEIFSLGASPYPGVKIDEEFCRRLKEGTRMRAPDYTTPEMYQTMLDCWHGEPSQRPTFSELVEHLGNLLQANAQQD
# assayOverview: VEGF-R2 coupled spectrophotometric assay, unphosphorylated construct (FLVK)
# Assay type: biochemical
# experimentalParameters: % inhibition at 50 nM compound; read-out: FLVK Ki % inh @ 50 nM
testReadout: inhibition at 0.05 µM (%)

>>> experimentalvalue("O=C(NC1CC1)c1ccccc1Nc1ccc2c(/C=C/c3ccccn3)n[nH]c2c1")
89
>>> experimentalvalue("O=C(NCc1ccco1)c1ccccc1Nc1ccc2c(/C=C/c3ccccn3)n[nH]c2c1")
88
>>> experimentalvalue("CC(=O)OCC#CCNC(=O)c1ccccc1Nc1ccc2c(/C=C/c3cc(C)cc(C)n3)n[nH]c2c1")
91

# credit: patent US7053107B2
